All values here come from patent US12440492B2.

assay: Bulk density, tapped density and Carr index; type: physicochemical; conditions: spray dried amorphous ipatasertib monohydrochloride powder; monohydrochloride
Where a name gives a salt, the structure may show the parent alone.
PROPERTY: Tapped density (gcm^−3)

(I) CC(C)NC[C@@H](C(=O)N1CCN(c2ncnc3c2[C@H](C)C[C@H]3O)CC1)c1ccc(Cl)cc1 [Composition 140910417, ipatasertib monohydrochloride]
(II) CC(C)NC[C@@H](C(=O)N1CCN(c2ncnc3c2[C@H](C)C[C@H]3O)CC1)c1ccc(Cl)cc1 [Composition 141210426, ipatasertib monohydrochloride]
Lab notebook, comparison: I versus II , higher Tapped density goes to which? Refer to your chosen entry by its label in the reply. I

---

experiment: Particle size distribution (d10, d50, d90) by laser diffraction; type: physicochemical; conditions: spray dried amorphous ipatasertib monohydrochloride powder
Where a name gives a salt, the structure may show the parent alone.
PROPERTY: Particle size d90 (μm)

Worked cases, Particle size d90 given:
[
  {
    "MOLECULE": "CC(C)NC[C@@H](C(=O)N1CCN(c2ncnc3c2[C@H](C)C[C@H]3O)CC1)c1ccc(Cl)cc1 [Composition 140110411, ipatasertib monohydrochloride]",
    "READOUT VALUE": 58
  },
  {
    "MOLECULE": "CC(C)NC[C@@H](C(=O)N1CCN(c2ncnc3c2[C@H](C)C[C@H]3O)CC1)c1ccc(Cl)cc1 [Composition 140110403, ipatasertib monohydrochloride]",
    "READOUT VALUE": 61
  },
  {
    "MOLECULE": "CC(C)NC[C@@H](C(=O)N1CCN(c2ncnc3c2[C@H](C)C[C@H]3O)CC1)c1ccc(Cl)cc1 [Composition 140110404, ipatasertib monohydrochloride]",
    "READOUT VALUE": 108
  },
  {
    "MOLECULE": "CC(C)NC[C@@H](C(=O)N1CCN(c2ncnc3c2[C@H](C)C[C@H]3O)CC1)c1ccc(Cl)cc1 [Composition 140110410, ipatasertib monohydrochloride]",
    "READOUT VALUE": 50
  },
  {
    "MOLECULE": "CC(C)NC[C@@H](C(=O)N1CCN(c2ncnc3c2[C@H](C)C[C@H]3O)CC1)c1ccc(Cl)cc1 [Composition 130710451, ipatasertib monohydrochloride]",
    "READOUT VALUE": 88
  }
]

(1) CC(C)NC[C@@H](C(=O)N1CCN(c2ncnc3c2[C@H](C)C[C@H]3O)CC1)c1ccc(Cl)cc1 [Composition 140210412, ipatasertib monohydrochloride]
(2) CC(C)NC[C@@H](C(=O)N1CCN(c2ncnc3c2[C@H](C)C[C@H]3O)CC1)c1ccc(Cl)cc1 [Composition 140910420, ipatasertib monohydrochloride]
Hi, I'm comparing 1 with 2 and wondering which one has the bigger number for Particle size d90. Any idea? Mark your answer with the label of the selected entry. 1
(1: 94 μm, 2: 47 μm)

(a) CC(C)NC[C@@H](C(=O)N1CCN(c2ncnc3c2[C@H](C)C[C@H]3O)CC1)c1ccc(Cl)cc1 [Example 6C′, ipatasertib monohydrochloride]
(b) CC(C)NC[C@@H](C(=O)N1CCN(c2ncnc3c2[C@H](C)C[C@H]3O)CC1)c1ccc(Cl)cc1 [Composition 130810453, ipatasertib monohydrochloride]
Which of these two has the smaller recorded Particle size d90: a or b ? // return label of chosen record a
(a: 5.7 μm, b: 58 μm)
